// provenance: patent US10358434B2

Test Name: In vivo kinetics experiment (radioactivity distribution)
Set-up: species or system Wistar male rat
Setup Conditions: rat, caudal vein, 60 min after administration
Kindly supply the reported Radioactivity distribution Bladder (including urine) values for the records listed here.
Only the number, expressed in % ID/g, is required.

Qu. Field request: Radioactivity distribution Bladder (including urine) | item: [123I]c1ccc2nc(-c3cncc(Cn4ccnn4)c3)n(C3CC3)c2c1 [[^123I] 603]
Ans. 3.04

Qu. // repeat for Fc1cc2nc(-c3cncc(Cn4ccnc4)c3)n(CC[18F])c2cc1Cl [[^18F] 100] and report
Ans. 2.41

Qu. // repeat for Fc1cc2nc(-c3cncc(Cn4ccnc4)c3)n(CC[18F])c2cc1Br [[^18F] 200] and report
Ans. 5.83

Qu. // repeat for Fc1cc2nc(-c3cncc(Cn4ccnc4)c3)n(CCC[18F])c2cc1Cl [[^18F] 500] and report
Ans. 3.87

Qu. // repeat for [123I]c1ccc2nc(-c3cncc(Cn4ccnc4)c3)n(C3CC3)c2c1 [[^123I] 602] and report
Ans. 1.27

Qu. // repeat for FCCn1c(-c2cncc(Cn3ccnc3)c2)nc2cc(F)c([123I])cc21 [[^123I] 400] and report
Ans. 1.27
